assay: Half life of compound in 3:1 of DMSO/PBS at 50 to 100 uM measured after lambda-trans illumination by UV-Vis spectrophotometry; format: physicochemical; settings: buffer, dose 50-100 µM
Property label: t1/2 (min)

Please review the entries below; each comes with its answer.
COc1ccc(/C=C2\Sc3ccc(/C=C/C(=O)Nc4ccccc4N)cc3C2=O)cc1 :: 4.2
COc1ccc2c(c1)S/C(=C\c1ccc(/C=C/C(=O)NO)cc1)C2=O :: 9.2
COc1ccc2c(c1)S/C(=C\c1ccc(C(=O)Nc3ccccc3N)cc1)C2=O :: 28
COc1ccc2c(c1)S/C(=C\c1cccc(C(=O)NO)c1)C2=O :: 3.1
COc1ccc2c(c1)S/C(=C\c1cccc(C(=O)Nc3ccccc3N)c1)C2=O :: 2.2

A: COc1ccc2c(c1)C(=O)/C(=C/c1ccc(C(=O)Nc3ccccc3N)cc1)S2
B: COc1ccc(/C=C2\Sc3cc(C(=O)Nc4ccccc4N)ccc3C2=O)cc1
C: COc1ccc2c(c1)C(=O)/C(=C/c1ccc(/C=C/C(=O)Nc3ccccc3N)cc1)S2
D: COc1ccc(/C=C2\Sc3ccc(/C=C/C(=O)NO)cc3C2=O)cc1
Arrange the 4 molecules from largest to smallest t1/2. Arrange the labels as the request states and list them.
B, A, D, C

Value source: ChEMBL document CHEMBL6127054
